Reported EC50 by item:
Biological target: human activated kallikrein enzyme (Homo sapiens, UniProt P03952)
Sequence (P03952 391-638 limits assumed): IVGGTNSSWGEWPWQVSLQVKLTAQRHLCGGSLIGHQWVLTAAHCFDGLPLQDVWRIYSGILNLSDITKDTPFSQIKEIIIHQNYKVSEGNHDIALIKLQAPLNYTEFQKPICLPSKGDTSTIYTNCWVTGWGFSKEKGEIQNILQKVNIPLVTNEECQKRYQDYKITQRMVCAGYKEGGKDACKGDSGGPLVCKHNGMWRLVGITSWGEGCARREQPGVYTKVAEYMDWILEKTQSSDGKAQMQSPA
Sequence (P03952 20-390 partner limits assumed): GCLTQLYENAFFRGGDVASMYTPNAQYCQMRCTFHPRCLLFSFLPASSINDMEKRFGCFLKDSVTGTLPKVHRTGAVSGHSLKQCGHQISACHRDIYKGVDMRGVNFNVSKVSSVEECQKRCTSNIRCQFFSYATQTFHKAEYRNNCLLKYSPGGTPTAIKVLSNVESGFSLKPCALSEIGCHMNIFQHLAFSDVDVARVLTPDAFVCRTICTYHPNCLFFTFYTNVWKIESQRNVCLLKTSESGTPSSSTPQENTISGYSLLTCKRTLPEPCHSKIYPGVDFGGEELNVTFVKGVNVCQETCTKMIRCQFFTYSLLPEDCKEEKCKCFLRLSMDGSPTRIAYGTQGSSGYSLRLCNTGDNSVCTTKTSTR
Assay: Plasma kallikrein inhibition, fluorogenic PFR-AMC substrate, 500 pM activated kallikrein format
Format: biochemical
Conditions: 500 pM activated kallikrein, 300 uM PFR-AMC, 30 min preincubation, 10 min reaction; read-out: Primary Dose Response Assay: Average EC50
Protocol: Compounds were evaluated for inhibition of the human activated kallikrein enzyme in two formats of an assay employing a fluorogenic peptide substrate. […] After initiation with substrate, reactions were incubated for 10 min at room temperature and fluorescence emission at 460 nm from 380 nm excitation measured with a microplate reader. […]

{"columns": ["compound", "EC50"],
 "data": [
  ["O=C(Nc1cc(NCc2cn3cc(C4CC4)ccc3n2)ncn1)[C@H]1C[C@@H]1c1cc(Cl)ccc1F (racemic)", "10 to 100 nM"],
  ["Cc1ccnc([C@H]2C[C@@H]2C(=O)Nc2cc(CCc3cn4cc(C5CC5)cc(N5CC(=O)N(C)C5=O)c4n3)cnn2)n1", "< 1 nM"],
  ["Cc1ccnc([C@H]2C[C@@H]2C(=O)Nc2cc(N[C@H](C)c3cn4cc(C5CC5)cc(N5CC(=O)N(C)C5=O)c4n3)nc(C)n2)n1 (single isomer, unassigned)", "< 1 nM"],
  ["O=C(Nc1cc(NCc2cn3cc(C4CC4)ccc3n2)ccn1)[C@H]1C[C@@H]1c1cc(Cl)cs1 (racemic)", "1 to 10 nM"],
  ["Cc1ccnc([C@H]2C[C@@H]2C(=O)Nc2cc(NCc3cn4cc(C5CC5)cc(N5CC(=O)N(C)C5=O)c4n3)nc(C3(F)COC3)n2)n1 (racemic)", "1 to 10 nM"],
  ["CC(C)(C)OC(=O)N1CC(c2cc(C3CC3)cn3cc(CNc4ccnc(NC(=O)[C@H]5C[C@@H]5c5cccc(Cl)c5)c4)nc23)C1", "10 to 100 nM"],
  ["Cc1ccnc([C@H]2C[C@@H]2C(=O)Nc2cc(N3C[C@@H](O)C[C@@H]3c3cn4cc(C5CC5)cc(N5CC(=O)NC5=O)c4n3)ncn2)n1 (relative stereo)", "< 1 nM"],
  ["O=C(Nc1cc(NCc2cn3cc(C4CC4)ccc3n2)ccn1)[C@H]1C[C@@H]1c1cc(Cl)ccc1-n1cnnn1 (racemic)", "< 1 nM"],
  ["Cc1ccnc([C@H]2C[C@@H]2C(=O)Nc2cc(N[C@H](C)c3cn4cc(C5CC5)cc(N5CC6(COC6)OC5=O)c4n3)nc(C)n2)n1", "< 1 nM"],
  ["Cc1ccnc([C@H]2C[C@@H]2C(=O)Nc2cc(Cc3cn4cc(C5CC5)cc(N5CC(=O)N(C)C5=O)c4n3)ncn2)n1 (racemic)", "1 to 10 nM"],
  ["Cc1ccnc([C@H]2C[C@@H]2C(=O)Nc2cc(C#N)cc(NCc3cn4cc(C5CC5)cc(N5CC(=O)N(C)C5=O)c4n3)c2)n1", "< 1 nM"],
  ["CN1C(=O)CN(c2cc(C3CC3)cn3cc(COc4cnnc(NC(=O)[C@H]5C[C@@H]5c5cccc(Cl)c5)c4)nc23)C1=O", "< 1 nM"],
  ["CS(=O)(=O)Nc1cc(C2CC2)cn2cc(CNc3ccnc(NC(=O)[C@H]4C[C@@H]4c4cccc(Cl)c4)c3)nc12", "< 1 nM"],
  ["N#Cc1ccc(Cl)cc1[C@H]1C[C@@H]1C(=O)Nc1cc(NCc2cn3cc(C4CC4)cc(N4CCCC4=O)c3n2)ccn1 (racemic)", "< 1 nM"],
  ["Cc1ccnc([C@H]2C[C@@H]2C(=O)Nc2ncc3oc(=O)n(Cc4cn5cc(C6CC6)cc(N6CC(=O)N(C)C6=O)c5n4)c3n2)n1 (racemic)", "< 1 nM"],
  ["C[C@H]1[C@H](C(=O)Nc2cc(NCc3cn4cc(C5CC5)ccc4n3)ncn2)[C@H]1c1cccc(Cl)c1 (single isomer, unassigned) [Example 507]", "> 6000 nM"],
  ["Cc1ccnc([C@H]2C[C@@H]2C(=O)Nc2cc(NCc3cn4cc(C5CC5)cc(N5CC(=O)N(C)C5=O)c4n3)nc(C)n2)n1 (racemic) [Example 366]", "< 1 nM"],
  ["O=C(Nc1cc(NCc2cn3cc(C4CC4)cc(N4CCN5CC(F)(F)CC5C4)c3n2)ccn1)[C@H]1C[C@@H]1c1cccc(Cl)c1 (stereo partly drawn)", "1 to 10 nM"],
  ["O=C(Nc1cc(NCc2cn3cc(C4CC4)ccc3n2)ccn1)[C@H]1C[C@@H]1c1cccc(Cl)c1 (single isomer, unassigned)", "< 1 nM"],
  ["Cc1ccnc([C@H]2C[C@@H]2C(=O)Nc2cc(NC(C)c3cn4c(N5CC(=O)N(C)C5=O)cc(C5CC5)cc4n3)nc(C)n2)n1 (stereo partly drawn)", "100 to 1000 nM"],
  ["COc1nc(NC(=O)[C@H]2C[C@@H]2c2nccc(C)n2)cc(OCc2cn3cc(C4CC4)cc(N4CC(=O)N(C)C4=O)c3n2)n1", "< 1 nM"],
  ["CC(=O)N(C)c1cc(C2CC2)cn2cc(CNc3ccnc(NC(=O)[C@H]4C[C@@H]4c4cccc(Cl)c4)c3)nc12", "< 1 nM"],
  ["CC1(C)CC(=O)N(c2cc(C3CC3)cn3cc(CNc4cc(NC(=O)[C@H]5C[C@@H]5c5cccc(Cl)c5)ncn4)nc23)C1 (racemic)", "1 to 10 nM"],
  ["Cc1ccnc([C@H]2C[C@@H]2C(=O)Nc2cc(OCc3cn4cc(C5CC5)cc(N5CC(=O)N(C)C5=O)c4n3)c(CO)nn2)n1", "< 1 nM"]
]}

These data points were gathered from patent US20240228488A1.
